# viability at 20 µM listing for each entry below
# Test system: Jeko-1 (SOX11+)
# protocol_summary: Cell viability assay (CellTiter-Blue resazurin reduction)
# Assay type: cell-based
# condition_context: Homo sapiens, JeKo-1, 72 h, JeKo-1 cells, 20 μM compound, normalized to 0.2% DMSO

Answered examples (5):
compound	reading
CC1Sc2ccc(C(=O)Nc3ccc(S(=O)(=O)Nc4ccccc4)cc3Cl)cc2NC1=O (stereo not shown)	36.2%
CC1Sc2ccc(C(=O)Nc3ccc(C(=O)Nc4ccccc4)cc3)cc2NC1=O (stereo not shown)	97.5%
CC1Sc2ccc(C(=O)Nc3cccc(S(=O)(=O)N4CCOCC4)c3)cc2NC1=O (stereo not shown)	30.8%
CC1Sc2ccc(C(=O)Nc3ccc(S(=O)(=O)N4CCCCC4)cc3)cc2NC1=O (stereo not shown)	7.38%
O=C(Nc1ccc2cccnc2c1)c1ccc(OCc2ccccc2)cc1	22.8%

## Task Which viability at 20 µM is reported for this compound? CC1Sc2ccc(C(=O)Nc3ccc(S(=O)(=O)N4CCOCC4)cc3)cc2NC1=O (stereo not shown)
## Result 18.9%

## Task What do you have for O=C(Nc1ccc(S(=O)(=O)Nc2ccccc2)cc1)c1ccc2snnc2c1 ?
## Result 34.3%

## Task Query CC1Sc2ccc(C(=O)Nc3ccc(S(=O)(=O)N(C)C(C)C)cc3)cc2NC1=O (stereo not shown) next
## Result 0.92%

## Task Same read-out for c1ccc(COc2cccc(CNc3ccc4cncnc4c3)c2)cc1 ?
## Result 1.4%

## Task Now this one: O=C(Nc1ccc(S(=O)(=O)N2CCCC2)c(Cl)c1)c1ccc2c(c1)CCCS2
## Result 1.26%
